target: Histone deacetylase 5 (Homo sapiens, UniProt Q9UQL6); assay: Inhibition of recombinant human full length N-terminal GST-tagged HDAC5 expressed in baculovirus infected Sf9 insect cells using fluorogenic substrate measured after 60 mins by FRET assay
pIC50: −log10 of the molar value.
measurement-kind: pIC50

Problem: What measured pIC50 goes with `C/C=C1\NC(=O)c2csc(n2)CNC(=O)C[C@@H](/C=C/CCSSCCCCCCC)OC(=O)[C@H](CCCCN)NC1=O` ?
Result: < 5.00

* * *

biological target: Histone deacetylase 3/Nuclear receptor corepressor 2 (HDAC3/NCoR2) (Homo sapiens, UniProt O15379); assay: Inhibition of C-terminal His-tagged recombinant human HDAC3 (1 to 428 residues)/N-terminal GST-tagged recombinant human NCoR2 (395 to 489 residues) co-expressed in baculovirus infected Sf9 cells using fluorometric substrate measured after 60 mins by FRET assay
Sequence (O15379 whole entry, the tested form may be a part): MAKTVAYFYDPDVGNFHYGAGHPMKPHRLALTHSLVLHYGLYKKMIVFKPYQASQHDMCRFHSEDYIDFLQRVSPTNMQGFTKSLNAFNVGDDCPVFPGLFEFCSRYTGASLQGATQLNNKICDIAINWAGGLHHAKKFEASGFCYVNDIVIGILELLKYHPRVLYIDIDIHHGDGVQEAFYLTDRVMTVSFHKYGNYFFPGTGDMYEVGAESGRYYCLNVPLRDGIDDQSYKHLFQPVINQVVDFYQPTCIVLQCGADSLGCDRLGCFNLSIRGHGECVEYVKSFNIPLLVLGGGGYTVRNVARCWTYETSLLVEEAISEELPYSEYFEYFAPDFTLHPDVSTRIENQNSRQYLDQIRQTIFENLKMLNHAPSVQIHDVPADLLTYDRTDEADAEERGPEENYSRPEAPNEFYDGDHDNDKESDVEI
Sequence (Q9Y618 whole entry, further chain, the tested form may be a part): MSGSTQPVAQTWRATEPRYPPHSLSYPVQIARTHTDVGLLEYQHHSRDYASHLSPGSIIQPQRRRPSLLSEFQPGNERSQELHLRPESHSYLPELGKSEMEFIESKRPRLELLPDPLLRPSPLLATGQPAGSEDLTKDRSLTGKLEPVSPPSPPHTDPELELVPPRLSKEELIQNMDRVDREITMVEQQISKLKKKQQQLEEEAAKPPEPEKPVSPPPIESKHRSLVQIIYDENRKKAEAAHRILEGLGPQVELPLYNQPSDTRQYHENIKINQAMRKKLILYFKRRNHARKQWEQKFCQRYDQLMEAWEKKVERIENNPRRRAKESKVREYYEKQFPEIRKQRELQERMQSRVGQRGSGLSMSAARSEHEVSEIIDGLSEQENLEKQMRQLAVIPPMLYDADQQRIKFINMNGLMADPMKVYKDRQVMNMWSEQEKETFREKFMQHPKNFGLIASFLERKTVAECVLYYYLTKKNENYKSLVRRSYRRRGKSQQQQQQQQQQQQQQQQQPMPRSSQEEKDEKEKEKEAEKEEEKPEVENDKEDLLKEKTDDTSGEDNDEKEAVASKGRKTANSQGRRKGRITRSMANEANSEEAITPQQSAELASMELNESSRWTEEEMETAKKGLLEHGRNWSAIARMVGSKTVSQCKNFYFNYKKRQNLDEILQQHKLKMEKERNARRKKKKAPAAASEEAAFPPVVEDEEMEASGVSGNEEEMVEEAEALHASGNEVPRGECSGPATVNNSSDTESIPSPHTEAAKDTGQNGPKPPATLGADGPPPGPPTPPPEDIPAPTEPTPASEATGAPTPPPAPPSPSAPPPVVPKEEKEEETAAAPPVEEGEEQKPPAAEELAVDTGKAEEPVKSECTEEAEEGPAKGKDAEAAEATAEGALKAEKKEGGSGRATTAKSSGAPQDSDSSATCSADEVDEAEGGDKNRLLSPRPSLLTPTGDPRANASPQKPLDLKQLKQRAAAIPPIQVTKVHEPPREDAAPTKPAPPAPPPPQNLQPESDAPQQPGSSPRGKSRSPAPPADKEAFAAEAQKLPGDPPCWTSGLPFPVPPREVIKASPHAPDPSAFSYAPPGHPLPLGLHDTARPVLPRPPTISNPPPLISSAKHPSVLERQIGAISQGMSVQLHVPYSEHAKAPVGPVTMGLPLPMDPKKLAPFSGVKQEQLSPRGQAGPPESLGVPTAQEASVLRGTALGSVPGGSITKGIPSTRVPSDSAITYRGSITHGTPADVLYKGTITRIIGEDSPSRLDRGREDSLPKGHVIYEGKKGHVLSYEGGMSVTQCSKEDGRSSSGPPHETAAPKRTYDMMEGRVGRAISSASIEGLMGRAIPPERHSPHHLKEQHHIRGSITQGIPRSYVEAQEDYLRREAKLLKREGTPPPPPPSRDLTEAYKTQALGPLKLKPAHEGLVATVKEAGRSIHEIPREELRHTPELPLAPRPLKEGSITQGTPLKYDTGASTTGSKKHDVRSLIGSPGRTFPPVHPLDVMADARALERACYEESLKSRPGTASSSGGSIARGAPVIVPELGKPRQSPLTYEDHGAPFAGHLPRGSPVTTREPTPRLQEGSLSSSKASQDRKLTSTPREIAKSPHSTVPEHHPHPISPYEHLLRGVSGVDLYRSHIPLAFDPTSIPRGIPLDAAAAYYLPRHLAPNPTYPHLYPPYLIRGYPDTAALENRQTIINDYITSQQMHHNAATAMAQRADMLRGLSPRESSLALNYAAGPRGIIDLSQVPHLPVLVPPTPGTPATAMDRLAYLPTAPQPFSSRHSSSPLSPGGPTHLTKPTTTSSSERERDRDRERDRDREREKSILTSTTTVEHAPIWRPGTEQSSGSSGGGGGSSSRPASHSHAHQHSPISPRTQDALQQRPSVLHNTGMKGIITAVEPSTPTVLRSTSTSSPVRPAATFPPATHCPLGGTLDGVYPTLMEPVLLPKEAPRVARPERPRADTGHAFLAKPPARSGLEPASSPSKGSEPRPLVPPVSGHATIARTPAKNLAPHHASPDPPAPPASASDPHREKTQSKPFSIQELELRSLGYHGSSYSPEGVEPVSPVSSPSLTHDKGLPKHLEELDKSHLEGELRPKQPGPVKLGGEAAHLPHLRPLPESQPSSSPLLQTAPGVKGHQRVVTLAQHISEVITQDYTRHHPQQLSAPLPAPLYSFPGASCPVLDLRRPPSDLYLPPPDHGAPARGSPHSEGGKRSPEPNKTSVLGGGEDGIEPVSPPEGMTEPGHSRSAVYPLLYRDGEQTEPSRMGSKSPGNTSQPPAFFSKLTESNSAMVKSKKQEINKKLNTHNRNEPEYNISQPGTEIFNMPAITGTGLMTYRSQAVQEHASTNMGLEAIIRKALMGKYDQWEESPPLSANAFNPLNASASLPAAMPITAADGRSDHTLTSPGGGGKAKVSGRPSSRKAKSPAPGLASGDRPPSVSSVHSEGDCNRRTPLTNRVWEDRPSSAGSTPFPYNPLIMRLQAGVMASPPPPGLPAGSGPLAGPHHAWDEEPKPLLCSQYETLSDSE
measurement-kind: pIC50
One number for each entry, as −log10 of the molar value.

C/C=C1\NC(=O)c2csc(n2)CNC(=O)C[C@@H](/C=C/CCSC(=O)CCCCCCC)OC(=O)[C@H](C(C)C)NC1=O ... 8.05

Now, please, on to the next compound.
Problem: Which pIC50 reading was recorded for the compound `C/C=C1\NC(=O)c2csc(n2)CNC(=O)C[C@@H](/C=C/CCSSCCCCCCC)OC(=O)[C@H](CCCCN)NC1=O` ?
Result: 7.99

* * *

Biological target: UniProt:Q9BY41
Sequence (Q9BY41 whole entry): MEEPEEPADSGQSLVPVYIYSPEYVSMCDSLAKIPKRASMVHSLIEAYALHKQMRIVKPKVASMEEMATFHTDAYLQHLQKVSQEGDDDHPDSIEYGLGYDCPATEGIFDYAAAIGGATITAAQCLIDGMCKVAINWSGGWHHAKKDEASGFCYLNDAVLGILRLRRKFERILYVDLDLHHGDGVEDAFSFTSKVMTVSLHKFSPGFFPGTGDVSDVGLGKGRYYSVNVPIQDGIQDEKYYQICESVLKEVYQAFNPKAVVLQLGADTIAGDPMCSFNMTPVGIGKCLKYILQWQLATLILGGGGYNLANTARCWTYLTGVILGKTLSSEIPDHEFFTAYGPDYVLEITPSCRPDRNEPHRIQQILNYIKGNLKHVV
Assay: Inhibition of recombinant human full length C-terminal His-tagged HDAC8 expressed in baculovirus infected Sf9 insect cells using fluorometric substrate measured after 60 mins by FRET assay
measurement-kind: pIC50
Give bare numbers, as −log10 of the molar value.

Problem: What measured pIC50 goes with `C/C=C1\NC(=O)c2csc(n2)CNC(=O)C[C@@H](/C=C/CCSC(=O)CCCCCCC)OC(=O)[C@H](C(C)C)NC1=O` ?
Result: 5.40

* * *

target: Histone deacetylase 2 (Homo sapiens, UniProt Q92769); test: biochemical
Sequence (Q92769 whole entry): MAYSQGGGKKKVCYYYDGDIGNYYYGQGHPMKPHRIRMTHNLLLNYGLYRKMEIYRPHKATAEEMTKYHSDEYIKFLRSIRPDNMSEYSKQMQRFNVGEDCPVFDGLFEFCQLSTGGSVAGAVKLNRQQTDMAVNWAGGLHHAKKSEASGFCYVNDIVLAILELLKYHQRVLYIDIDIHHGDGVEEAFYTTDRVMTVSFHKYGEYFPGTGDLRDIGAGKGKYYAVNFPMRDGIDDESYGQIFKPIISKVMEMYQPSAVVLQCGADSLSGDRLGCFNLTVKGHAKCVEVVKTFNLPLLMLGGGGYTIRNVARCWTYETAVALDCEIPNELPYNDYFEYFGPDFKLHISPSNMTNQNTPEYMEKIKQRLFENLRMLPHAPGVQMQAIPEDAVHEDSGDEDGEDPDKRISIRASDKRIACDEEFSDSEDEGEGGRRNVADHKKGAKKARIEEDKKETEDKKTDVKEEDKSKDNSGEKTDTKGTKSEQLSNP
Description: Inhibition of recombinant human full length C-terminal His- tagged HDAC2 (1 to 488 residues) expressed in Sf9 insect cells using fluorometric substrate measured after 60 mins by FRET assay
Kindly state IC50 for each of the entries shown.
Give bare numbers, in nM.

C/C=C1\NC(=O)c2csc(n2)CNC(=O)C[C@@H](/C=C/CCSSCCCCCCC)OC(=O)[C@H](CCCCN)NC1=O ... 7.5

Now, please, on to the next compound.
Problem: Look at this compound and give its reported IC50. `C/C=C1\NC(=O)c2csc(n2)CNC(=O)C[C@@H](/C=C/CCSC(=O)CCCCCCC)OC(=O)[C@H](C(C)C)NC1=O`
Result: 5.3

* * *

target: Histone deacetylase 9 (Homo sapiens); test: Inhibition of recombinant human C-terminal His-tagged HDAC9 (604 to 1066 residues) expressed in baculovirus infected Sf9 insect cells using fluorogenic substrate measured after 60 mins by FRET assay
measurement-kind: IC50

Problem: Given the compound `C/C=C1\NC(=O)c2csc(n2)CNC(=O)C[C@@H](/C=C/CCSSCCCCCCC)OC(=O)[C@H](CCCCN)NC1=O` , what is its reported IC50?
Result: > 10 µM

* * *

For each record, write down the corresponding GI50 at 72 h.
test: Cytotoxicity against human WI-38 cells assessed as cell growth inhibition incubated for 72 hrs by CCK8 assay; assay type: cell-based
The reply should consist of the numeric value with the unit placed after it.

Past entries and their recorded results:
C/C=C1\NC(=O)c2csc(n2)CNC(=O)C[C@@H](/C=C/CCSC(=O)CCCCCCC)OC(=O)[C@H](C(C)C)NC1=O ... 363 nM
C/C=C1\NC(=O)c2csc(n2)CNC(=O)C[C@@H](/C=C/CCSSCCCCCCC)OC(=O)[C@H](CCCCN)NC1=O ... 2320 nM

Problem: May I ask what GI50 at 72 h has been recorded for `C/C=C1\NC(=O)[C@H]2CSSCC/C=C/[C@H](CC(=O)N[C@H](C(C)C)C(=O)N2)OC(=O)[C@H](C(C)C)NC1=O` ?
Result: 30.1 nM

* * *

target: Histone deacetylase 7 (Homo sapiens, UniProt Q8WUI4); assay: Inhibition of recombinant human N-terminal GST-tagged HDAC7 expressed in baculovirus infected Sf9 insect cells using fluorogenic substrate measured after 60 mins by FRET assay
Sequence (Q8WUI4 whole entry): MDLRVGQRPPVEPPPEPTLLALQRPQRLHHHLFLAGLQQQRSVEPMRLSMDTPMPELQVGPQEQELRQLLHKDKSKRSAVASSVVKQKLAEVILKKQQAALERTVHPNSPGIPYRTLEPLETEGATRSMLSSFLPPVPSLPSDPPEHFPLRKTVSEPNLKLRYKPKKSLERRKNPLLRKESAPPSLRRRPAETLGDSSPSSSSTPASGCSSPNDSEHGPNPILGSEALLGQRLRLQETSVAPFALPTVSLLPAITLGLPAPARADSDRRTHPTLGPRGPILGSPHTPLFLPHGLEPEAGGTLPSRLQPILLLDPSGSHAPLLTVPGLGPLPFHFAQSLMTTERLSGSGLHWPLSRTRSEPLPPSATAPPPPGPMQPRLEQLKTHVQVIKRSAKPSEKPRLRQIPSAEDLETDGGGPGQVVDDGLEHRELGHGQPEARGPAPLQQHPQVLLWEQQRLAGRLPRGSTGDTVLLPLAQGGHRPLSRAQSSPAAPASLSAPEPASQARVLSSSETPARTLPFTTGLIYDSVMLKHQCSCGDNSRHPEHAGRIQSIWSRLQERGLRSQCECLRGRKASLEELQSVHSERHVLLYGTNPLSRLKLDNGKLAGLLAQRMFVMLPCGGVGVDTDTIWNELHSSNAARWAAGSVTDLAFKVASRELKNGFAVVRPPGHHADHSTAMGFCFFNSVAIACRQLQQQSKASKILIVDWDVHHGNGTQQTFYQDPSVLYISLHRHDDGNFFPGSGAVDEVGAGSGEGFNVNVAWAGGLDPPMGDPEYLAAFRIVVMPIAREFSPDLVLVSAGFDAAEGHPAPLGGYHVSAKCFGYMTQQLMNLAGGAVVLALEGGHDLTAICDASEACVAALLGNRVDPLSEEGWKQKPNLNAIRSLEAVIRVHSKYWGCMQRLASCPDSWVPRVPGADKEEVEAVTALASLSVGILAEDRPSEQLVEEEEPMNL
pIC50: −log10 of the molar value.
measurement-kind: pIC50

Problem: I am curious: what pIC50 value has been reported for `C/C=C1\NC(=O)c2csc(n2)CNC(=O)C[C@@H](/C=C/CCSSCCCCCCC)OC(=O)[C@H](CCCCN)NC1=O` ?
Result: < 5.00

* * *

Biological target: UniProt:Q96DB2
Sequence (Q96DB2 whole entry): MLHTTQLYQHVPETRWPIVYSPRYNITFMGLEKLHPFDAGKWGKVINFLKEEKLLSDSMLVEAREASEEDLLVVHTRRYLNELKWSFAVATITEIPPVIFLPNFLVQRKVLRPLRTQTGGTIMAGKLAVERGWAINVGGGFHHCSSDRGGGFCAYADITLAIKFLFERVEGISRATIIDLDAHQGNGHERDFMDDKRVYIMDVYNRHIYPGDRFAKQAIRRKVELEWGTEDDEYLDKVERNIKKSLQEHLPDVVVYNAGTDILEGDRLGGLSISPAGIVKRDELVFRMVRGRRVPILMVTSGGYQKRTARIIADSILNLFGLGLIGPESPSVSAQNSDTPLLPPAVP
Test: Inhibition of recombinant human full length HDAC11 expressed in baculovirus infected Sf9 cells measured after 60 mins by FRET assay
measurement-kind: IC50

Problem: Any idea what IC50 was measured for `C/C=C1\NC(=O)c2csc(n2)CNC(=O)C[C@@H](/C=C/CCSSCCCCCCC)OC(=O)[C@H](CCCCN)NC1=O` ?
Result: > 10 µM

* * *

assay: Selectivity index, ratio of GI50 for cytotoxicity against human WI-38 cells to GI50 for antiproliferative activity against triple-negative human MDA-MB-231 cells; type: toxicity, cell-based; settings: WI-38 cells versus MDA-MB-231 cells, read-out: RatioGI50
measurement-kind: selectivity ratio
Answers are plain numbers.

Batch lookup, selectivity ratio per entry.
1. C/C=C1\NC(=O)c2csc(n2)CNC(=O)C[C@@H](/C=C/CCSSCCCCCCC)OC(=O)[C@H](CCCCN)NC1=O
2. C/C=C1\NC(=O)[C@H]2CSSCC/C=C/[C@H](CC(=O)N[C@H](C(C)C)C(=O)N2)OC(=O)[C@H](C(C)C)NC1=O [ROMIDEPSIN]
3. C/C=C1\NC(=O)c2csc(n2)CNC(=O)C[C@@H](/C=C/CCSC(=O)CCCCCCC)OC(=O)[C@H](C(C)C)NC1=O

Result:
194
3.1
32

* * *

Target: Protein deacetylase HDAC6 (Homo sapiens)
Sequence (Q9UBN7 whole entry): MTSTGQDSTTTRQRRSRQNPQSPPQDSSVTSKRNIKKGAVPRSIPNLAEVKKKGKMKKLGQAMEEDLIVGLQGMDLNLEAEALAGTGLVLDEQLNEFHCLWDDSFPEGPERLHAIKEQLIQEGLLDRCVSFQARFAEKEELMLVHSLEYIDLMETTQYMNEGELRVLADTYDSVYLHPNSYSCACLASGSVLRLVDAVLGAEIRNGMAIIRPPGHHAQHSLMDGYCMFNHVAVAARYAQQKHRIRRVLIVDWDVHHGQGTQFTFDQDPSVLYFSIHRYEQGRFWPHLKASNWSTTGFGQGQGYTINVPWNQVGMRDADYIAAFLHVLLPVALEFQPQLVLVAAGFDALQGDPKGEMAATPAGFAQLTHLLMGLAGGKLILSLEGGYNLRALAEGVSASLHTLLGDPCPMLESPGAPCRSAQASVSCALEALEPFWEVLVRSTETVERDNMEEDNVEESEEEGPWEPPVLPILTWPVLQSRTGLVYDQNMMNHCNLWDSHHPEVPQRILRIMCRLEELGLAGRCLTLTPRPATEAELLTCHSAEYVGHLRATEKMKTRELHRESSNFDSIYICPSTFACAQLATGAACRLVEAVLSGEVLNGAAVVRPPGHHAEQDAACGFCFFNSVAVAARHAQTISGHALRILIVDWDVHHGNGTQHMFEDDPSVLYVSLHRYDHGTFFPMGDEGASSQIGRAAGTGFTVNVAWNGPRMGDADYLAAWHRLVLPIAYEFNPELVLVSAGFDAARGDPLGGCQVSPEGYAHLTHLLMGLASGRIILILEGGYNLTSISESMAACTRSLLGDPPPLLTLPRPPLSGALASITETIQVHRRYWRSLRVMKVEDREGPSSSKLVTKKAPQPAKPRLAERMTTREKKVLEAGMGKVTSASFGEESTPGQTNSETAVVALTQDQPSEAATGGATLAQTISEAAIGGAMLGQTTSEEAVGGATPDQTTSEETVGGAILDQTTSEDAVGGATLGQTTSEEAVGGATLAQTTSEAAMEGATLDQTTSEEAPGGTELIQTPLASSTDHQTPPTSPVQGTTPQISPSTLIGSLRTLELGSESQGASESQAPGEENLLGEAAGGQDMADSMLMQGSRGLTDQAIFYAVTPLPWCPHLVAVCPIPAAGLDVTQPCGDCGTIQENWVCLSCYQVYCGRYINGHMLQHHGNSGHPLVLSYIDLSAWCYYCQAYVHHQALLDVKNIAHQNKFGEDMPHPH
Test: Inhibition of recombinant human full length N-terminal GST-tagged HDAC6 expressed in Sf9 cells using fluorogenic substrate measured after 60 mins by FRET assay
measurement-kind: IC50 (nM)
Answers are plain numbers, in nM.

C/C=C1\NC(=O)c2csc(n2)CNC(=O)C[C@@H](/C=C/CCSSCCCCCCC)OC(=O)[C@H](CCCCNC(=O)CCCCC[N+]2=C(/C=C/C=C/C=C3/N(CC)c4ccc5c(S(=O)(=O)O)cc(S(=O)(=O)O)cc5c4C3(C)C)C(C)(C)c3c2ccc2c(S(=O)(=O)[O-])cc(S(=O)(=O)O)cc32)NC1=O ... 70

Problem: State the recorded IC50 for this entry: `C/C=C1\NC(=O)c2csc(n2)CNC(=O)C[C@@H](/C=C/CCSC(=O)CCCCCCC)OC(=O)[C@H](C(C)C)NC1=O`
Result: 1810
